Just for reference, BigSolDB 2.1 is where these values come from.

- Condition set: in DMSO, 303.15 K
Test readout: solubility (mole fraction)
A bare number is all that is needed in reply.

Please indicate solubility (mole fraction) recorded for c1ccc(-n2c(-c3cc(-c4nc5ccccc5n4-c4ccccc4)cc(-c4nc5ccccc5n4-c4ccccc4)c3)nc3ccccc32)cc1
0.00151

###

- Condition set: in isopropanol, 313.15 K
Test readout: solubility (mole fraction)
Would you mind answering with just the numeric figure?

Please look at this compound and report its solubility (mole fraction): c1ccc(-n2c(-c3cc(-c4nc5ccccc5n4-c4ccccc4)cc(-c4nc5ccccc5n4-c4ccccc4)c3)nc3ccccc32)cc1
4.51e-05

###

- Condition set: in chlorobenzene, 313.15 K
Test readout: solubility (mole fraction)

Return value of solubility (mole fraction) for input c1ccc(-n2c(-c3cc(-c4nc5ccccc5n4-c4ccccc4)cc(-c4nc5ccccc5n4-c4ccccc4)c3)nc3ccccc32)cc1 , no commentary.
0.00941
